# assay procedure: chemical genetic growth profiling, strain panel (AID 1159580);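 note: tested at 20 µM; growth read once vehicle control cultures reached saturation at 30 °C; lower values mean less growth of the strain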
# run parameters: S. cerevisiae deletion strains, growth OD, locus YNR052C, strain pop2
The campaign covered roughly 5,500 compounds. About 2,000 (36%) were called active. Another 18% or so got no clear call; they are omitted. Cut-off read from the data, not from the text of the source: active = normalized growth mostly below about 0.91 (no sharp cut-off); inconclusive = no clear call, values can overlap the other calls; inactive = mostly above about 0.92. The list shows a part of the results.
Select the correct class. Options are TRUE = active, FALSE = inactive and nothing else.

{"columns": ["compound", "discrete label"],
 "data": [
  ["CC(=O)[C@@]1(O)CCC2C3C[C@H](C)C4=CC(=O)C=CC4(C)[C@@]3(F)[C@@H](O)C[C@@]21C (some centres not stated)", "FALSE"],
  ["COc1ccc(Cl)cc1C(=O)NCCc1ccc(S(=O)(=O)NC(=O)NC2CCCCC2)cc1", "FALSE"],
  ["NS(=O)(=O)c1cc(C2(O)NC(=O)c3ccccc32)ccc1Cl (configuration not stated)", "FALSE"]
]}

Recorded test outcome, item COc1ccc2c3c1OC1C(O)CC=C4C(C2)N(C)CCC431 (configuration not stated)
FALSE

// outcome(item) with item = NC(=NCCC[C@H](N)C(=O)O)N[N+](=O)[O-]
FALSE

Kindly provide the recorded test outcome for the following compound: CCOCN(C(=O)CCl)c1c(C)cccc1CC
FALSE

What classification did O=C1C=C2C(=CCOC2O)O1 (configuration not stated) end up with in this test?
TRUE
